For each entry below, report its Inhibition of the radiolabeled ligands % TBPS value.
- Test system: picrotoxin binding site of the GABA-A receptor
- recordedConditions: 100 μM
Give bare numbers, in %.

* C[C@@H]1C(=O)OC[C@H]1N(Cc1ccccc1)C(=O)OCc1ccccc1 (relative stereo) [Compound 42] | 52

Batch request: Inhibition of the radiolabeled ligands % TBPS per item, same order as input.
1. C[C@@H]1C(=O)OC[C@@H]1N(Cc1ccccc1)C(=O)OCc1ccccc1 (relative stereo) [Compound 43]
2. C[C@H]1C(=O)OC[C@H]1NC(=O)OCc1ccccc1 (relative stereo) [Compound 27]
3. CCCC1(CCC)C(=O)OCC1NC(=O)OCc1ccccc1 (stereo not drawn) [Compound 30]

A:
60
0
55

For every item below, please supply its Inhibition of the radiolabeled ligands % TBPS.
1. C[C@@H]1C(=O)OC[C@H]1NC(=O)OCc1ccccc1 (relative stereo) [Compound 28]
2. O=C1CC(NC(=O)OCc2ccccc2)CO1 (stereo not drawn) [Compound 26]

A:
0
0

###

- testedSystem: picrotoxin binding site of the GABA-A receptor
- recordedConditions: read-out: IC50 of S^35-TBPS displacement
metric: pIC50
Answers are plain numbers, as −log10 of the molar value.

Form: compound = CCCC1(CCC)C(=O)OCC1NS(=O)(=O)c1ccc(OC)cc1 (centres unmarked) [Compound 33] ; pIC50 = 4.30
